The reader will find reported GLP-1R EC50 values listed item by item below.
target: human GLP-1 receptor (human, UniProt P43220 24-463); assay: cell-based or functional assay
*1 amine or outer side, *2 acyl side, *3 side chain or, on linkers, in order; H or OH if unused. Where no end group is shown, it is not given here. [ ]: non-standard residue; d: D form. O‑methyl‑L‑homoserine = COCC[C@H](N[*:1])C(=O)[*:2]; Nle = CCCC[C@H](N)C(=O)O; Aib = CC(C)(N)C(=O)O
The reply should contain only the number, in nM.

Query block: Would you mind telling me what GLP-1R EC50 value was observed for HXQGTFTSDYSKYLDSRRAQDFVQWLMNTKRNRNNIAC (Aib at position 2; C7 = Cys(Oxa4-cholesterol) at position 38; C-terminal amide) [OXM216] ?
Result block: 3.1

Query block: Would you mind telling me what GLP-1R EC50 value was observed for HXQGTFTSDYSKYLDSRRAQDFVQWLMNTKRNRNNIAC (Aib at position 2; C4 = Cys(cholest-5-en-3-yl{[(2R)-3-amino-2-(amino)-3-oxopropyl]thio}acetate) at position 38; C-terminal amide) [OXM70] ?
Result block: 0.15

Query block: Would you mind telling me what GLP-1R EC50 value was observed for H[Aib]QGTFTSDYSKYLDSRRAQDFVQWL[Nle]NTKRNRNNIAC(cholesterol)-NH2 [OXM212] ?
Result block: 0.6

Query block: Would you mind telling me what GLP-1R EC50 value was observed for HXQGTFTSDYSKYLDSRRAQDFVQWLMNTKRNRNNIAK (Aib at position 2; K(palmitoyl) at position 38; C-terminal amide) [OXM177] ?
Result block: 0.1

Query block: Would you mind telling me what GLP-1R EC50 value was observed for HSQGTFTSDYSKYLDSRRAQDFVQWLMNTKRNRNNIAC (D-Ser at position 2; C7 = Cys(Oxa4-cholesterol) at position 38; C-terminal amide) [OXM115] ?
Result block: 0.08

Query block: Would you mind telling me what GLP-1R EC50 value was observed for H[Aib]QGTFTSDYSKYLDSRRAQDFVQWL[O‑methyl‑L‑homoserine]NTKRNRNNIAC(cholesterol)-NH2 [OXM213] ?
Result block: 0.3
